tested on: Escherichia coli; experiment: Minimum inhibitory concentration against Escherichia coli TEM X3 (inoculum, 10e4 cfu per spot)(TEM I type lactamase producer)
Experimental Endpoint: MIC (µg/mL)

Molecule | Target | Readout Number
CC(=O)OCC1=C(C(=O)OC(C)(C)C)N2C(=O)[C@@H](Nc3nc4ccc[nH]c-4n3)C2SC1 (stereo partly specified) | Escherichia coli | 4

I. CC(=O)OCC1=C(C(=O)OC(c2ccccc2)c2ccccc2)N2C(=O)[C@@H](Nc3nc4cc(CC#N)ccc4[nH]3)C2SC1 (stereo partly specified)
II. CC1=C(C(=O)OC(c2ccccc2)c2ccccc2)N2C(=O)[C@@H](NC3=NC4CC4N3)C2SC1 (stereo partly specified)
III. CC(=O)OCC1=C(C(=O)OC(c2ccccc2)c2ccccc2)N2C(=O)[C@@H](Nc3nc4c(O)cccc4[nH]3)C2SC1 (stereo partly specified)
IV. Cc1nnc(SCC2=C(C(=O)OC(C)(C)C)N3C(=O)[C@@H](NC4=NCCN4)C3SC2)s1 (stereo partly specified)
V. CC(=O)OCC1=C(C(=O)OC(c2ccccc2)c2ccccc2)N2C(=O)[C@@H](Nc3nc4c(N)cccc4[nH]3)C2SC1 (stereo partly specified)
Task: Endpoint returns the given molecules ordered by ascending MIC. Reply: labels, ordered per the request.
Result: II, I, IV, III, V

###

system: Proteus mirabilis; assay: Minimum inhibitory concentration against Proteus mirabilis A18 (inoculum, 10e5 cfu per spot); assay type: functional
The following compounds are listed with their measured MIC values.

Compound | MIC
CC1=C(C(=O)OC(c2ccccc2)c2ccccc2)N2C(=O)[C@@H](NC3=NC(c4ccccc4)CN3)C2SC1 (stereo partly drawn) | > 256 mg/L

Task: Which value of MIC has been reported for CC1=C(C(=O)OC(C)(C)C)N2C(=O)[C@@H](Nc3nc4ccccc4n3CC(=O)OC(C)(C)C)C2SC1 (stereo partly drawn) in the records?
Result: > 256 mg/L

Task: Which value of MIC has been reported for CC1=C(C(=O)OC(c2ccccc2)c2ccccc2)N2C(=O)[C@@H](NC3=NC(C)C(C)N3)C2SC1 (stereo partly drawn) in the records?
Result: > 256 mg/L

###

system: Enterobacter cloacae; experiment: Minimum inhibitory concentration against Enterobacter cloacae A13 (inoculum, 10e5 cfu per spot); format: functional
Experimental Endpoint: MIC (µg/mL)

1. CC(=O)OCC1=C(C(=O)OC(C)(C)C)N2C(=O)[C@@H](Nc3nc4ccc[nH]c-4n3)C2SC1 (stereo partly drawn)
2. CC1=C(C(=O)OC(c2ccccc2)c2ccccc2)N2C(=O)[C@@H](NC3=NC(C)C(C)N3)C2SC1 (stereo partly drawn)
Task: Select the item with the higher value of MIC from the options 1 and 2 listed. I would appreciate it if you answered with the label of your choice.
Result: 1
(1: 256 µg/mL, 2: 32 µg/mL)

###

The following compounds are listed with their measured MIC values.
tested on: Escherichia coli; test: Minimum inhibitory concentration against Escherichia coli A8 (inoculum, 10e5 cfu per spot); assay type: functional

Compound | Experimental Endpoint | Result
CC1=C(C(=O)OC(c2ccccc2)c2ccccc2)N2C(=O)[C@@H](Nc3nc4ccccc4s3)C2SC1 (stereo partly drawn) | MIC | > 1000 µg/mL
CC1=C(C(=O)OC(c2ccccc2)c2ccccc2)N2C(=O)[C@@H](Nc3nc4ccccc4o3)C2SC1 (stereo partly drawn) | MIC | > 1000 µg/mL

Could you now consider this next compound?
Task: Which value of MIC has been reported for CO[C@@]1(Nc2nc3ccccc3[nH]2)C(=O)N2C(C(=O)OC(c3ccccc3)c3ccccc3)=C(COC(C)=O)CSC21 (stereo partly drawn) in the records?
Result: > 256 µg/mL

###

test system: Klebsiella aerogenes; experiment: Minimum inhibitory concentration against Klebsiella aerogenes X5L (inoculum, 10e4 cfu per spot); assay type: functional
The following compounds are listed with their measured MIC values.

Task: Query the reported MIC for Klebsiella aerogenes; item: CC(=O)OCC1=C(C(=O)OC(C)(C)C)N2C(=O)[C@@H](Nc3nc4cc[nH]cc-4n3)C2SC1 (stereo partly drawn)
Result: > 256 µg/mL

Task: Query the reported MIC for Klebsiella aerogenes; item: CO[C@@]1(NC2=NCCN2)C(=O)N2C(C(=O)OC(c3ccccc3)c3ccccc3)=C(C)CSC21 (stereo partly drawn)
Result: > 256 µg/mL

Task: Query the reported MIC for Klebsiella aerogenes; item: CC1=C(C(=O)OC(c2ccccc2)c2ccccc2)N2C(=O)[C@@H](NC3=NC4CC4N3)C2SC1 (stereo partly drawn)
Result: 2 µg/mL
